Tested on: SARS-CoV, strain Urbani
Assay: microbe, parasite or virus in culture
Assay type: cell-based
Settings: Severe acute respiratory syndrome coronavirus, Vero 76, read-out: EC50 by neutral red uptake assay, n = 4
quantity_measured: EC50 (µM)

| structure_smiles | quantity_measured | result_units | test_value |
| --- | --- | --- | --- |
| NC(=O)c1ncn([C@@H]2O[C@H](CO)[C@@H](O)[C@H]2O)n1 | EC50 | µM | 270 |

----------
Assay: in vivo
Conditions: BALB/c, mouse
Examples of compounds with documented MTD follow.

| compound | MTD, mg/kg |
| --- | --- |
| NC(=O)c1ncn([C@@H]2O[C@H](CO)[C@@H](O)[C@H]2O)c1O [Mizoribine, mizoribine] | 25 |
| COc1c(C)c2c(c(O)c1C/C=C(\C)CCC(=O)O)C(=O)OC2 [MPA, mycophenolic acid] | 75 |
| C#Cc1c(C(N)=O)ncn1[C@@H]1O[C@H](CO)[C@@H](O)[C@H]1O [EICAR] | 75 |

----------
Test: in vitro
Settings: African green monkey, NR assay CC50

| structure_smiles | CC50 |
| --- | --- |
| NC(=O)c1ncn([C@@H]2O[C@H](CO)[C@@H](O)[C@H]2O)n1 | 402 µM |

The reported measurements were obtained from paper PMC7114261.
